Recorded values, source patent US20130289246A1.

Could you please report measured HAI activity for the items listed next?
Target: HA of A/Hong Kong/1/1968 (H3N2) virus (Influenza A virus (H3N2), UniProt Q91MA7 17-566)
Assay: cell-based or functional assay

IN: Consider the binder shown here: mAb 2G1 (antibody, V domains shown) VH: EVQLVESGAEVKKPGSSVKVSCKASGGTFITHVFTWVRQAPGQGLEWVGGFIAIFGTSNYAQKFQGRVTITADESTSTAYMELTSLTSEDTAVYYCARGISGSYGWFDPWGQGTLVTVS VL: DIQLTQSPSSLSASVGDRVTITCQASQDIRKYLNWYQQKPGKAPNLLIYDASNVKTGVPSRFRGSGSGTDFTFTISSLQPEDIATYYCQQYDNLPITFGQGTRLEIKR What is its recorded HAI activity?
OUT: 5 µg/mL

IN: Input mAb 8F8 (antibody, V domains shown) VH: EVQLLESGGGVVQPGRSLRLSCAASGFMFSSYVMHWVRQPPGKGLEWVAVIWYDGSKTYFADSMRGRLTVSRDNSKNALYLQMNRLRAEDTAVYYCARQQDSGYSGPEVSYYSHYGMDVWGQGTTVIVS VL: QSVLTQSPSASGTPGRAITISCSGSSSNIGSNPVNWYQQLPGAAPKLLIYADEHRPSGVPDRFSGPKSGTSASLAISGLQSEDEADYYCAAWDDSLSGPAVVFGGGTKLTVLG
OUT: > 20 µg/mL

IN: Continue with mAb 11J19 (antibody, V domains shown) VH: EVQLQESGPGLVKPSETLSLSCTVSGGSITRSSYYWGWIRQPPGKGLEWIGNIYYSGTTYYNPSLKSRVTISVDTSKNQFSLKLSSVTAADTAVYYCARLYGSGLDYWGQGTLVTVS VL: DIQLTQSPSFLSASVGDRVTITCRASQGSSRYVAWYQQKPGKAPKLLILAASTLHTGVPSRFSGSGSGTEFTLTISSLQPEDFATYSCQQLNGFLLTFGGGTKVEIKR
OUT: 2.5 µg/mL
